# testedTarget: Sodium channel protein type 2 subunit alpha (Homo sapiens)
# procedureDetails: Inhibition of Nav1.2 channel in HEK cells at 10 uM by patch clamp technique
# Format: cell-based
# Parameters: scale not given: the % may be the effect or the level left
# conditionsUsed: HEK293
Under this convention, met denotes Activity strictly below 8% and not met denotes Activity at or above 8%.

molecularString: c1ccc(-c2c[nH]c(C3CCCCC3)n2)cc1
testedTarget: Sodium channel protein type 2 subunit alpha (Homo sapiens)
labelClass: not met

molecularString: O=C1NC(=O)C(c2ccccc2)(c2ccccc2)N1
testedTarget: Sodium channel protein type 2 subunit alpha (Homo sapiens)
labelClass: not met

molecularString: Nc1nnc(-c2cccc(Cl)c2Cl)c(N)n1
testedTarget: Sodium channel protein type 2 subunit alpha (Homo sapiens)
labelClass: not met

molecularString: c1ccc(-c2c[nH]c(-c3ccoc3)n2)cc1
testedTarget: Sodium channel protein type 2 subunit alpha (Homo sapiens)
labelClass: not met

molecularString: c1ccc(-c2c[nH]c(-c3cc4ccccc4o3)n2)cc1
testedTarget: Sodium channel protein type 2 subunit alpha (Homo sapiens)
labelClass: not met

molecularString: c1ccc(-c2c[nH]c(-c3ccsc3)n2)cc1
testedTarget: Sodium channel protein type 2 subunit alpha (Homo sapiens)
labelClass: met

molecularString: c1ccc(-c2c[nH]c(-c3cccnc3)n2)cc1
testedTarget: Sodium channel protein type 2 subunit alpha (Homo sapiens)
labelClass: met

molecularString: c1ccc(-c2c[nH]c(-c3ccco3)n2)cc1
testedTarget: Sodium channel protein type 2 subunit alpha (Homo sapiens)
labelClass: met

----------
# testedTarget: Sodium channel protein type 2 subunit alpha (Homo sapiens) (UniProt Q99250)
# Sequence (Q99250 whole entry, looked up): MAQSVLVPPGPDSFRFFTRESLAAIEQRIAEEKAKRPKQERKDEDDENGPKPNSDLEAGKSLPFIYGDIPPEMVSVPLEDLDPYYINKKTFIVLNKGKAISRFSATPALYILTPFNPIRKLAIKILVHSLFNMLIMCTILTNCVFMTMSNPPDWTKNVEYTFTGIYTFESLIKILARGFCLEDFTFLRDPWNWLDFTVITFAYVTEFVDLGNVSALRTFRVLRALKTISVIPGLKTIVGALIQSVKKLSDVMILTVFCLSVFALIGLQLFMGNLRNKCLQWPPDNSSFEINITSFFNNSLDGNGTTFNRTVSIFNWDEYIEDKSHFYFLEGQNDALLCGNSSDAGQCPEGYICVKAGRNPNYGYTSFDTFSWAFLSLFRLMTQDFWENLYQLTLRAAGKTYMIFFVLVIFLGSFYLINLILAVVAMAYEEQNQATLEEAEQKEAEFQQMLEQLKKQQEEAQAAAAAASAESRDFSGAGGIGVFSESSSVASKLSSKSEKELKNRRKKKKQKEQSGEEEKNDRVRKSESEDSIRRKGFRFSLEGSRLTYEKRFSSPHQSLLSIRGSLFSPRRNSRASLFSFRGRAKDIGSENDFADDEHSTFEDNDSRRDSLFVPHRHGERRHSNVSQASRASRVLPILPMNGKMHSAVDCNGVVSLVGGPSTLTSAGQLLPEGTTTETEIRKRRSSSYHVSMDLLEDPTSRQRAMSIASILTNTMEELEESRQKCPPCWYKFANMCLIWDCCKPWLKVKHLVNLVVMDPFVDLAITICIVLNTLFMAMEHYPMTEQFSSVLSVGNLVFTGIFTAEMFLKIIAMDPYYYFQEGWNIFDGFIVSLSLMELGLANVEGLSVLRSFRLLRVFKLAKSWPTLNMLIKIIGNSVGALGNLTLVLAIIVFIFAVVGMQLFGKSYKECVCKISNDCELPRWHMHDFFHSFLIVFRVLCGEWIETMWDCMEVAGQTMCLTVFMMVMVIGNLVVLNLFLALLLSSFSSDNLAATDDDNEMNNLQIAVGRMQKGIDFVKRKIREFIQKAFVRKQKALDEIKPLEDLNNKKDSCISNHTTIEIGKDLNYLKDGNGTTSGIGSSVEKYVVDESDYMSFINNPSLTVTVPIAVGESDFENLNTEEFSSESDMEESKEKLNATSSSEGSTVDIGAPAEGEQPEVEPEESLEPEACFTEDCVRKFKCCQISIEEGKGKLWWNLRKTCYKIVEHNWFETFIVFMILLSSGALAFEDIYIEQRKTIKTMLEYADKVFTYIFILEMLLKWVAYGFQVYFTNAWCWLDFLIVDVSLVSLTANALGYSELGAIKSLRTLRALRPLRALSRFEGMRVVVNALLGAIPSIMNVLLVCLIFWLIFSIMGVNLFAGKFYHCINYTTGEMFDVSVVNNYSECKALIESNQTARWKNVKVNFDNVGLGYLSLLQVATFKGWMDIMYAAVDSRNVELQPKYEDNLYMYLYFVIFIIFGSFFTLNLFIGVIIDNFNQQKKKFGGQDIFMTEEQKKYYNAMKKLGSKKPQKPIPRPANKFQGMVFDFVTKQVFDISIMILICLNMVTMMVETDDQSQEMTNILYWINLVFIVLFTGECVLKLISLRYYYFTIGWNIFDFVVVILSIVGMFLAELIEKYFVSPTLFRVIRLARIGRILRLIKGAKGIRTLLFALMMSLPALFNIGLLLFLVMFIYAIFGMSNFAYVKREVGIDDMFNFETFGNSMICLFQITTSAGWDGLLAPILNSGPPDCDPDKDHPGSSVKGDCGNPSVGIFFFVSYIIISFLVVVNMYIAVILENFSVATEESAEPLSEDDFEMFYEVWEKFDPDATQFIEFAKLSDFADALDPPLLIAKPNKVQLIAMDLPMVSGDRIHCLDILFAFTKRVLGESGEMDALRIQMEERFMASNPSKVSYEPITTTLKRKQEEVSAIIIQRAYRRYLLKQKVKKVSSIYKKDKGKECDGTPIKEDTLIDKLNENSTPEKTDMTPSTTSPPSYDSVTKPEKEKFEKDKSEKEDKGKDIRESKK
# procedureDetails: Inhibition of Nav1.2 channel in HEK cells at 100 uM by patch clamp technique
# Format: cell-based
# Set-up: scale not given: the % may be the effect or the level left
# conditionsUsed: HEK293
Label condition met when Activity is at or above 40%; otherwise label condition not met.

molecularString: c1ccc(-c2c[nH]c(-c3ccco3)n2)cc1
testedTarget: Sodium channel protein type 2 subunit alpha (Homo sapiens) (UniProt Q99250)
labelClass: condition not met

molecularString: c1ccc(-c2c[nH]c(C3CCCCC3)n2)cc1
testedTarget: Sodium channel protein type 2 subunit alpha (Homo sapiens) (UniProt Q99250)
labelClass: condition met

molecularString: O=C1NC(=O)C(c2ccccc2)(c2ccccc2)N1
testedTarget: Sodium channel protein type 2 subunit alpha (Homo sapiens) (UniProt Q99250)
labelClass: condition not met

molecularString: c1ccc(-c2c[nH]c(-c3cc4ccccc4o3)n2)cc1
testedTarget: Sodium channel protein type 2 subunit alpha (Homo sapiens) (UniProt Q99250)
labelClass: condition met

molecularString: c1ccc(-c2c[nH]c(-c3ccccc3)n2)cc1
testedTarget: Sodium channel protein type 2 subunit alpha (Homo sapiens) (UniProt Q99250)
labelClass: condition met

molecularString: c1ccc(-c2c[nH]c(-c3cccnc3)n2)cc1
testedTarget: Sodium channel protein type 2 subunit alpha (Homo sapiens) (UniProt Q99250)
labelClass: condition not met

molecularString: Nc1nnc(-c2cccc(Cl)c2Cl)c(N)n1
testedTarget: Sodium channel protein type 2 subunit alpha (Homo sapiens) (UniProt Q99250)
labelClass: condition not met

molecularString: c1ccc(-c2c[nH]c(-c3ccsc3)n2)cc1
testedTarget: Sodium channel protein type 2 subunit alpha (Homo sapiens) (UniProt Q99250)
labelClass: condition met

molecularString: c1ccc(-c2c[nH]c(-c3ccoc3)n2)cc1
testedTarget: Sodium channel protein type 2 subunit alpha (Homo sapiens) (UniProt Q99250)
labelClass: condition not met
